Overview of recorded shrunken log2 fold change for various sequences
Test system: Escherichia coli TOP10;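 note: peptides expressed intracellularly from a pBAD plasmid library in pooled LB shake-flask culture, induced with 0.3% L-arabinose, DNA abundance read by NGS, three biological replicates, DESeq2 with apeglm shrinkage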
Experiment: shrunken log2 fold change of peptide-encoding DNA abundance (4.5 h post-induction vs induction); higher = less antimicrobial activity (less host growth inhibition)
Settings: time post-induction: 4.5 h; library: site-saturation at positions 5, 18, 19, 20
QUANTITY_NAME: shrunken log2 fold change

[[record]]
sequence_data = "RRIRQRPPRLPRPRPRPLHLPRP"
quantity_name = "shrunken log2 fold change"
recorded_result = -0.617

[[record]]
sequence_data = "RRIRDRPPRLPRPRPRPWRVPRP"
quantity_name = "shrunken log2 fold change"
recorded_result = 0.28

[[record]]
sequence_data = "RRIRDRPPRLPRPRPRPKWSPRP"
quantity_name = "shrunken log2 fold change"
recorded_result = -0.0182

[[record]]
sequence_data = "RRIRLRPPRLPRPRPRPYLSPRP"
quantity_name = "shrunken log2 fold change"
recorded_result = -0.0116

[[record]]
sequence_data = "RRIRMRPPRLPRPRPRPSYQPRP"
quantity_name = "shrunken log2 fold change"
recorded_result = -0.115

[[record]]
sequence_data = "RRIRFRPPRLPRPRPRPGCMPRP"
quantity_name = "shrunken log2 fold change"
recorded_result = -0.178

[[record]]
sequence_data = "RRIRTRPPRLPRPRPRPQFKPRP"
quantity_name = "shrunken log2 fold change"
recorded_result = 2.23

[[record]]
sequence_data = "RRIRTRPPRLPRPRPRPMNIPRP"
quantity_name = "shrunken log2 fold change"
recorded_result = -0.259

[[record]]
sequence_data = "RRIRPRPPRLPRPRPRPMLGPRP"
quantity_name = "shrunken log2 fold change"
recorded_result = 0.252

[[record]]
sequence_data = "RRIRRRPPRLPRPRPRPTMFPRP"
quantity_name = "shrunken log2 fold change"
recorded_result = 0.0275

[[record]]
sequence_data = "RRIRARPPRLPRPRPRPYRHPRP"
quantity_name = "shrunken log2 fold change"
recorded_result = -0.157

[[record]]
sequence_data = "RRIRCRPPRLPRPRPRPEGNPRP"
quantity_name = "shrunken log2 fold change"
recorded_result = -0.0225

[[record]]
sequence_data = "RRIRCRPPRLPRPRPRPEFCPRP"
quantity_name = "shrunken log2 fold change"
recorded_result = 0.0369

[[record]]
sequence_data = "RRIRQRPPRLPRPRPRPEACPRP"
quantity_name = "shrunken log2 fold change"
recorded_result = -0.000521

[[record]]
sequence_data = "RRIRVRPPRLPRPRPRPTNWPRP"
quantity_name = "shrunken log2 fold change"
recorded_result = 0.202

[[record]]
sequence_data = "RRIRIRPPRLPRPRPRPEVCPRP"
quantity_name = "shrunken log2 fold change"
recorded_result = 0.503

[[record]]
sequence_data = "RRIRGRPPRLPRPRPRPIGMPRP"
quantity_name = "shrunken log2 fold change"
recorded_result = 0.244

[[record]]
sequence_data = "RRIRYRPPRLPRPRPRPNSQPRP"
quantity_name = "shrunken log2 fold change"
recorded_result = -0.85

[[record]]
sequence_data = "RRIRWRPPRLPRPRPRPRMCPRP"
quantity_name = "shrunken log2 fold change"
recorded_result = 0.272

[[record]]
sequence_data = "RRIRIRPPRLPRPRPRPFSWPRP"
quantity_name = "shrunken log2 fold change"
recorded_result = 0.0705

[[record]]
sequence_data = "RRIRWRPPRLPRPRPRPNEGPRP"
quantity_name = "shrunken log2 fold change"
recorded_result = -0.0387

[[record]]
sequence_data = "RRIRTRPPRLPRPRPRPFKIPRP"
quantity_name = "shrunken log2 fold change"
recorded_result = -0.0514

[[record]]
sequence_data = "RRIRGRPPRLPRPRPRPDCNPRP"
quantity_name = "shrunken log2 fold change"
recorded_result = 0.679

[[record]]
sequence_data = "RRIRRRPPRLPRPRPRPCFDPRP"
quantity_name = "shrunken log2 fold change"
recorded_result = 0.1

[[record]]
sequence_data = "RRIRPRPPRLPRPRPRPPGFPRP"
quantity_name = "shrunken log2 fold change"
recorded_result = 0.847

[[record]]
sequence_data = "RRIRDRPPRLPRPRPRPRYHPRP"
quantity_name = "shrunken log2 fold change"
recorded_result = -0.0202

[[record]]
sequence_data = "RRIRHRPPRLPRPRPRPPNAPRP"
quantity_name = "shrunken log2 fold change"
recorded_result = 0.257

[[record]]
sequence_data = "RRIRHRPPRLPRPRPRPFKVPRP"
quantity_name = "shrunken log2 fold change"
recorded_result = -0.0904

[[record]]
sequence_data = "RRIRTRPPRLPRPRPRPEERPRP"
quantity_name = "shrunken log2 fold change"
recorded_result = 0.12

[[record]]
sequence_data = "RRIRMRPPRLPRPRPRPWIMPRP"
quantity_name = "shrunken log2 fold change"
recorded_result = 0.00173

[[record]]
sequence_data = "RRIRFRPPRLPRPRPRPSNKPRP"
quantity_name = "shrunken log2 fold change"
recorded_result = -0.0849

[[record]]
sequence_data = "RRIRTRPPRLPRPRPRPHATPRP"
quantity_name = "shrunken log2 fold change"
recorded_result = -0.0102

[[record]]
sequence_data = "RRIRKRPPRLPRPRPRPVYPPRP"
quantity_name = "shrunken log2 fold change"
recorded_result = 0.293

[[record]]
sequence_data = "RRIRIRPPRLPRPRPRPRLAPRP"
quantity_name = "shrunken log2 fold change"
recorded_result = 0.237

[[record]]
sequence_data = "RRIRQRPPRLPRPRPRPEPTPRP"
quantity_name = "shrunken log2 fold change"
recorded_result = 0.877

[[record]]
sequence_data = "RRIRCRPPRLPRPRPRPPPWPRP"
quantity_name = "shrunken log2 fold change"
recorded_result = 1.06

[[record]]
sequence_data = "RRIRTRPPRLPRPRPRPVRPPRP"
quantity_name = "shrunken log2 fold change"
recorded_result = 0.779

[[record]]
sequence_data = "RRIRSRPPRLPRPRPRPTMLPRP"
quantity_name = "shrunken log2 fold change"
recorded_result = -0.119

[[record]]
sequence_data = "RRIRFRPPRLPRPRPRPQDRPRP"
quantity_name = "shrunken log2 fold change"
recorded_result = -0.591

[[record]]
sequence_data = "RRIRMRPPRLPRPRPRPPDIPRP"
quantity_name = "shrunken log2 fold change"
recorded_result = 0.121

[[record]]
sequence_data = "RRIRVRPPRLPRPRPRPAYRPRP"
quantity_name = "shrunken log2 fold change"
recorded_result = -0.0828

[[record]]
sequence_data = "RRIRLRPPRLPRPRPRPYQKPRP"
quantity_name = "shrunken log2 fold change"
recorded_result = 0.00934

[[record]]
sequence_data = "RRIRRRPPRLPRPRPRPGGRPRP"
quantity_name = "shrunken log2 fold change"
recorded_result = 0.295

[[record]]
sequence_data = "RRIRLRPPRLPRPRPRPWCGPRP"
quantity_name = "shrunken log2 fold change"
recorded_result = -0.0859

[[record]]
sequence_data = "RRIRWRPPRLPRPRPRPQMTPRP"
quantity_name = "shrunken log2 fold change"
recorded_result = -0.0595

[[record]]
sequence_data = "RRIRSRPPRLPRPRPRPKVPPRP"
quantity_name = "shrunken log2 fold change"
recorded_result = 0.0195

[[record]]
sequence_data = "RRIRERPPRLPRPRPRPLLIPRP"
quantity_name = "shrunken log2 fold change"
recorded_result = -0.437

[[record]]
sequence_data = "RRIRQRPPRLPRPRPRPFPHPRP"
quantity_name = "shrunken log2 fold change"
recorded_result = 0.259

[[record]]
sequence_data = "RRIRKRPPRLPRPRPRPKHGPRP"
quantity_name = "shrunken log2 fold change"
recorded_result = 0.157

[[record]]
sequence_data = "RRIRPRPPRLPRPRPRPEDQPRP"
quantity_name = "shrunken log2 fold change"
recorded_result = 0.106

[[record]]
sequence_data = "RRIRLRPPRLPRPRPRPERFPRP"
quantity_name = "shrunken log2 fold change"
recorded_result = 0.219

[[record]]
sequence_data = "RRIRYRPPRLPRPRPRPWAHPRP"
quantity_name = "shrunken log2 fold change"
recorded_result = -0.324

[[record]]
sequence_data = "RRIRGRPPRLPRPRPRPISRPRP"
quantity_name = "shrunken log2 fold change"
recorded_result = 0.0494

[[record]]
sequence_data = "RRIRSRPPRLPRPRPRPPEHPRP"
quantity_name = "shrunken log2 fold change"
recorded_result = 0.169

[[record]]
sequence_data = "RRIRNRPPRLPRPRPRPAALPRP"
quantity_name = "shrunken log2 fold change"
recorded_result = 0.341

[[record]]
sequence_data = "RRIRERPPRLPRPRPRPKKAPRP"
quantity_name = "shrunken log2 fold change"
recorded_result = -0.0599

[[record]]
sequence_data = "RRIRFRPPRLPRPRPRPQDDPRP"
quantity_name = "shrunken log2 fold change"
recorded_result = -0.493

[[record]]
sequence_data = "RRIRSRPPRLPRPRPRPKKKPRP"
quantity_name = "shrunken log2 fold change"
recorded_result = 0.195

[[record]]
sequence_data = "RRIRGRPPRLPRPRPRPWLHPRP"
quantity_name = "shrunken log2 fold change"
recorded_result = 0.106

[[record]]
sequence_data = "RRIRRRPPRLPRPRPRPKWPPRP"
quantity_name = "shrunken log2 fold change"
recorded_result = 0.141

[[record]]
sequence_data = "RRIRGRPPRLPRPRPRPNFTPRP"
quantity_name = "shrunken log2 fold change"
recorded_result = 0.298

[[record]]
sequence_data = "RRIRYRPPRLPRPRPRPAESPRP"
quantity_name = "shrunken log2 fold change"
recorded_result = -0.00136

[[record]]
sequence_data = "RRIRYRPPRLPRPRPRPFPYPRP"
quantity_name = "shrunken log2 fold change"
recorded_result = -0.0356


FYI, the data here is from the supplement of paper PMC9112550.
